Just for reference, BindingDB's records for doi:10.1016/j.bmcl.2006.10.060 is where these values come from.

# PROCEDURE SUMMARY: Antagonist activity against human CCR2 receptor assessed as inhibition of MCP1-induced migration of human peripheral blood monocytes
pIC50: −log10 of the molar value.
Listing of recorded pIC50 by entry.
REPORTED PROPERTY: pIC50

compound="CCN(CC)CCCC(CC(C)C)NC(=O)CCOc1cc(-c2cc(Cl)cc(Cl)c2)nn1-c1ccc2ccccc2c1 (configuration not stated)" reported_value=6.75
compound="CCC(CCCN(CC)CC)NC(=O)CCOc1cc(-c2cc(Cl)cc(Cl)c2)nn1-c1ccc2ccccc2c1 (configuration not stated)" reported_value=7.08
compound=COC(=O)[C@H](CCCN=C(N)N)NC(=O)CCOc1cc(-c2cc(Cl)cc(Cl)c2)nn1-c1ccc2ccccc2c1 reported_value=6.93
compound="CCN(CC)CCCC(C)NC(=O)CCNc1cc(-c2cc(Cl)cc(Cl)c2)nn1-c1ccc2ccccc2c1 (configuration not stated)" reported_value=7.27
compound="CCC(C)CC(CCCN(CC)CC)NC(=O)CCOc1cc(-c2cc(Cl)cc(Cl)c2)nn1-c1ccc2ccccc2c1 (configuration not stated)" reported_value=6.65
compound="CCCC(CCCN(CC)CC)NC(=O)CCOc1cc(-c2cc(Cl)cc(Cl)c2)nn1-c1ccc2ccccc2c1 (configuration not stated)" reported_value=6.81
compound=COC(=O)[C@H](CCCN=C(N)N)NC(=O)CCNc1cc(-c2cc(Cl)cc(Cl)c2)nn1-c1ccc2ccccc2c1 reported_value=7.17

----------
# PROCEDURE SUMMARY: Antagonist activity against human CCR2 receptor assessed as inhibition of MCP1-induced migration of human peripheral blood monocytes
pIC50: −log10 of the molar value.
REPORTED PROPERTY: pIC50

molecule=COC(=O)[C@H](CCCN=C(N)N)NC(=O)CCCc1cc(-c2cc(Cl)cc(Cl)c2)nn1-c1ccc2ccccc2c1 reported_property=pIC50 reported_value=6.73
molecule="CCN(CC)CCCC(NC(=O)CCOc1cc(-c2cc(Cl)cc(Cl)c2)nn1-c1ccc2ccccc2c1)C(C)C (centres undefined)" reported_property=pIC50 reported_value=7.49
molecule="CCN(CC)CCCC(C)NC(=O)CCOc1cc(-c2cc(Cl)cc(Cl)c2)nn1-c1ccc2ccccc2c1 (centres undefined)" reported_property=pIC50 reported_value=6.55
molecule=O=C(CCCc1cc(-c2cc(Cl)cc(Cl)c2)nn1-c1ccc2ccccc2c1)NCCCc1ccncc1 reported_property=pIC50 reported_value=5.85
